Source of measurements: patent US5863899A

System name: BK2-receptor (Rattus norvegicus, UniProt P25023)
Sequence (P25023 1-396): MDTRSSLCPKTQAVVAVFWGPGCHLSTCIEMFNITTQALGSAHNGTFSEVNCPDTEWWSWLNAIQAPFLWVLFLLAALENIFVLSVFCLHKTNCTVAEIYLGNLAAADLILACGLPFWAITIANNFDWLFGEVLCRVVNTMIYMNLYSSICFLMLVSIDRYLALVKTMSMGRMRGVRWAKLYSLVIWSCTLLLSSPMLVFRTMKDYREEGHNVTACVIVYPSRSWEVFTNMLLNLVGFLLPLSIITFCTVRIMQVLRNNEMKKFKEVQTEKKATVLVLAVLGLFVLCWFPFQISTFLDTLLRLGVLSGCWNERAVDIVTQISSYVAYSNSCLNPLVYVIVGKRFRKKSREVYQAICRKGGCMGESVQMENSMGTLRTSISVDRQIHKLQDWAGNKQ
Assay procedure: cell-based
Square brackets hold non-standard residues; d marks the D form. Peptide text beside a SMILES is read from it. * marks the point of attachment. X4 = CC(C)(C)c1ccc(C(C)(C)C(=O)Oc2ccc(S(=O)(=O)CCCC(=O)OCCCCCCN3C(=O)CC(*)C3=O)cc2)cc1; Hyp = O=C(O)[C@@H]1C[C@@H](O)CN1
Measured property: Kb (nM)

Molecule	System name	Endpoint value
CC(C)C[C@H](NC(=O)[C@@H](Cc1ccccc1)NC(=O)[C@H](CSC1CC(=O)N(CCCCCCOC(=O)CCCS(=O)(=O)c2ccc(OC(=O)C(C)(C)c3ccc(C(C)(C)C)cc3)cc2)C1=O)NC(=O)[C@H](Cc1ccccc1)NC(=O)CNC(=O)[C@@H]1C[C@@H](O)CN1C(=O)[C@@H]1CCCN1C(=O)[C@H](CCCNC(=N)N)NC(=O)[C@H](N)CCCNC(=N)N)C(=O)N[C@@H](CCCNC(=N)N)C(=O)O (some centres unmarked) [CP-0502] (H-[dR]RP[Hyp]GFC(X4)[dF]LR-OH)	BK2-receptor (Rattus norvegicus, UniProt P25023)	31.6

* * *

System name: BK2-receptor (Rattus norvegicus, UniProt P25023)
Assay procedure: cell-based
Square brackets hold non-standard residues; d marks the D form. Peptide text beside a SMILES is read from it. * marks the point of attachment. X13 = COc1ccc2c3c1O[C@H]1C(NC(=O)CNC(=O)CCSC4CC(=O)N(CCCCCCN5C(=O)CC(*)C5=O)C4=O)CC[C@@]4(O)[C@@H](C2)N(C)CC[C@]314; X9 = COc1ccc2c3c1O[C@H]1C(NCCSC4CC(=O)N(CCCCCCN5C(=O)CC(*)C5=O)C4=O)CC[C@@]4(O)[C@@H](C2)N(C)CC[C@]314; X1 = CN1CC[C@]23c4c5ccc(O)c4O[C@H]2C(NCCSC2CC(=O)N(CCCCCCN4C(=O)CC(*)C4=O)C2=O)CC[C@@]3(O)[C@H]1C5; Oic = O=C(O)[C@@H]1C[C@@H]2CCCC[C@@H]2N1; Hyp = O=C(O)[C@@H]1C[C@@H](O)CN1; dTic = O=C(O)[C@H]1Cc2ccccc2CN1; 2Thi = N[C@@H](Cc1cccs1)C(=O)O; X20 = O=C1CC(*)C(=O)N1CCCCCCO
Each entry below carries its recorded Kb.

Molecule	Kb
N=C(N)NCCC[C@@H](N)C(=O)N[C@@H](CCCNC(=N)N)C(=O)N1CCC[C@H]1C(=O)N1C[C@H](O)C[C@H]1C(=O)NCC(=O)N[C@@H](Cc1cccs1)C(=O)N[C@@H](CS)C(=O)N1Cc2ccccc2C[C@@H]1C(=O)N1[C@H](C(=O)N[C@@H](CCCNC(=N)N)C(=O)O)C[C@@H]2CCCC[C@@H]21 [CP-0347, D R-R-P-J-G-Thi-C-D Tic-Oic-R] (H-[dR]RP[Hyp]G[2Thi]C[dTic][Oic]R-OH)	0.316 nM
COc1ccc2c3c1O[C@H]1C(NCCSC4CC(=O)N(CCCCCCN5C(=O)CC(SC[C@H](NC(=O)[C@H](Cc6ccccc6)NC(=O)CNC(=O)[C@@H]6C[C@@H](O)CN6C(=O)[C@@H]6CCCN6C(=O)[C@H](CCCNC(=N)N)NC(=O)[C@H](N)CCCNC(=N)N)C(=O)N[C@H](Cc6ccccc6)C(=O)N[C@@H](CC(C)C)C(=O)N[C@@H](CCCNC(=N)N)C(=O)O)C5=O)C4=O)CC[C@@]4(O)[C@@H](C2)N(C)CC[C@]314 (some centres unmarked) [CP-0477] (H-[dR]RP[Hyp]GFC(X9)[dF]LR-OH)	12.6 nM
CC(C)C[C@H](NC(=O)[C@@H](Cc1ccccc1)NC(=O)[C@H](CSC1CC(=O)N(CCCCCCN2C(=O)CC(SCCNC3CC[C@@]4(O)[C@H]5Cc6ccc(O)c7c6[C@@]4(CCN5C)[C@H]3O7)C2=O)C1=O)NC(=O)[C@H](Cc1ccccc1)NC(=O)CNC(=O)[C@@H]1C[C@@H](O)CN1C(=O)[C@@H]1CCCN1C(=O)[C@H](CCCNC(=N)N)NC(=O)[C@H](N)CCCNC(=N)N)C(=O)N[C@@H](CCCNC(=N)N)C(=O)O (some centres unmarked) [CP-0494] (H-[dR]RP[Hyp]GFC(X1)[dF]LR-OH)	3.98 nM
CC(C)C[C@H](NC(=O)[C@@H](Cc1ccccc1)NC(=O)[C@H](CSC1CC(=O)N(CCCCCCO)C1=O)NC(=O)[C@H](Cc1ccccc1)NC(=O)CNC(=O)[C@@H]1C[C@@H](O)CN1C(=O)[C@@H]1CCCN1C(=O)[C@H](CCCNC(=N)N)NC(=O)[C@H](N)CCCNC(=N)N)C(=O)N[C@@H](CCCNC(=N)N)C(=O)O (some centres unmarked) [CP-0487] (H-[dR]RP[Hyp]GFC(X20)[dF]LR-OH)	3.98 nM
COc1ccc2c3c1O[C@H]1C(NC(=O)CNC(=O)CCSC4CC(=O)N(CCCCCCN5C(=O)CC(SC[C@H](NC(=O)[C@H](Cc6ccccc6)NC(=O)CNC(=O)[C@@H]6C[C@@H](O)CN6C(=O)[C@@H]6CCCN6C(=O)[C@H](CCCNC(=N)N)NC(=O)[C@H](N)CCCNC(=N)N)C(=O)N[C@H](Cc6ccccc6)C(=O)N[C@@H](CC(C)C)C(=O)N[C@@H](CCCNC(=N)N)C(=O)O)C5=O)C4=O)CC[C@@]4(O)[C@@H](C2)N(C)CC[C@]314 (some centres unmarked) [CP-0488] (H-[dR]RP[Hyp]GFC(X13)[dF]LR-OH)	6.31 nM
